// data source = the supplement of paper PMC10567573

B1: CAMK2D (parent)
chain: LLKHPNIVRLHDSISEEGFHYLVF

Variants of: B1
ASSAY NOTES: protein stability index of a GFP-peptide fusion (GPS, HEK-293T) (PSI 1-6); higher = more stable;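 also: lentivirally expressed fusions sorted by FACS into six bins by GFP to DsRed ratio, PSI derived from sequencing read proportions per bin multiplied by bin number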
MEASUREMENT CONTEXT: c terminus: a fixed tail appended
MEASURED ENDPOINT: protein stability index
Lab note: record just the number, no unit beside it.

Exam item: Recorded protein stability index of E17A , please.
Marked response: 2.91
